Cited source: PubChem BioAssay AID1222

- TEST_DETAILS: rescue of cells from ER stress-induced death, primary screen, 384-well, CSM14.1, thapsigargin, ATP luminescence (AID 1222);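 further: death triggered by thapsigargin at about 15 µM added after 2 h compound pretreatment; cell ATP read after overnight thapsigargin exposure of roughly 18 to 22 hours; reference of the scale not given here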
- RECORDED_CONDITIONS: CSM14.1 thapsigargin-induced death rescue, at 20 µM, stronger effect = higher value
Fewer than 10 of roughly 190,000 compounds were called active. A selection follows. Results with a measured potency or affinity are listed apart.
QUANTITY_KIND: cellular ATP content (survival) (%)
Numeric answer only, unit % assumed.

Worked examples follow.
INSERT INTO assay_data (substance_smiles, quantity_kind, unit_symbol, reading) VALUES
  ('CCOc1ccc(Nc2nc(Cc3nnc(SCC(=O)NC4CCCCC4)n3C)cs2)cc1', 'cellular ATP content (survival)', '%', -0.1),
  ('Cc1nc(N2CCC(C(N)=O)CC2)c2c(-c3cccs3)csc2n1', 'cellular ATP content (survival)', '%', -2.2),
  ('O=C(Nc1nnc(-c2ccco2)o1)c1ccc2ccccc2c1', 'cellular ATP content (survival)', '%', 11.1),
  ('CC(=O)Nc1ccc(OCc2cccc([N+](=O)[O-])c2)cc1', 'cellular ATP content (survival)', '%', 1.1),
  ('COc1ccccc1-c1noc(CCC(=O)Nc2cc(C(F)(F)F)ccc2Cl)n1', 'cellular ATP content (survival)', '%', 1);

Q: For `O=c1ccccn1CCOc1ccccc1Cl` , what is its reported cellular ATP content (survival)?
Result: 0.2

Q: For the compound shown here, `O=C(Nc1cccc(-c2cn3cccnc3n2)c1)Nc1ccccc1F` , give the reported cellular ATP content (survival).
Result: -0.8

Q: Recorded cellular ATP content (survival) for `COc1ccc(-c2csc(Nc3ccccc3)n2)cc1` , please?
Result: -1.2

---

- TEST_DETAILS: rescue of cells from ER stress-induced death, primary screen, 384-well, CSM14.1, thapsigargin, ATP luminescence (AID 1222)
- RECORDED_CONDITIONS: CSM14.1 thapsigargin-induced death rescue, at 20 µM, stronger effect = higher value
Fewer than 10 of roughly 190,000 compounds were called active. The list is a sample of the results. Results with a measured potency or affinity are listed apart.
QUANTITY_KIND: cellular ATP content (survival)

INSERT INTO results (molecule, quantity_kind, reading) VALUES
  ('O=C(NCCO)c1cccc2c1C(=O)c1ccccc1-2', 'cellular ATP content (survival)', '-1.3% (inactive)'),
  ('Cn1c(=O)c2c(nc(CN3CCN(Cc4ccccc4)CC3)n2CCN2CCOCC2)n(C)c1=O', 'cellular ATP content (survival)', '2.6% (inactive)'),
  ('COc1ccc(CCN(Cc2cccs2)S(=O)(=O)c2ccc(S(=O)(=O)N3CCCCCC3)cc2)cc1OC', 'cellular ATP content (survival)', '-1.5% (inactive)'),
  ('Cc1cc(NC(=O)CCC(=O)N(CC(=O)NC2CCCC2)c2ccccc2)no1', 'cellular ATP content (survival)', '0.5% (inactive)');

Attention now shifts to the item below.
Q: Looking for the measured cellular ATP content (survival) of CC1(C)CC(=O)C2=C(C1)NC(=O)CC2c1cc2c(cc1Br)OCO2 (stereo not given) , can you help?
Result: -0.1% (inactive)

---

- TEST_DETAILS: rescue of cells from ER stress-induced death, primary screen, 384-well, CSM14.1, thapsigargin, ATP luminescence (AID 1222);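 further: death triggered by thapsigargin at about 15 µM added after 2 h compound pretreatment; cell ATP read after overnight thapsigargin exposure of roughly 18 to 22 hours; reference of the scale not given here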
- RECORDED_CONDITIONS: CSM14.1 thapsigargin-induced death rescue, at 20 µM, stronger effect = higher value
Screen size: about 190,000 compounds; fewer than 10 were called active. Not all results are given here. Potency and affinity values are given separately.
QUANTITY_KIND: cellular ATP content (survival) (%)
Could you give me the number in %? Just the number is fine.

Example cases with answers are listed next.
INSERT INTO results (compound, reading) VALUES
  ('O=C(Nc1ccc(N2CCOCC2)cc1)c1ccc(Cl)nc1', -0.7),
  ('O=C(NNS(=O)(=O)c1ccccc1)c1ccc(S(=O)(=O)N2CCCCC2)cc1', -2.8),
  ('C=CCOc1ccc(C2CC(C)=NN2c2ccccc2)cc1 (configuration not stated)', 6.2);

Q: Fill blank: measured cellular ATP content (survival) of the compound Cc1cc(C)cc(OCC(=O)NNC(=O)C2CCCO2)c1 (configuration not stated) is ____.
Result: -0.3

Q: Returns the measured cellular ATP content (survival) for the input compound. Input: Cc1ccc(C(=O)NNC2CC(=O)N(c3ccc4c(c3)OCCO4)C2=O)cc1 (configuration not stated)
Result: -0.8

Q: Which cellular ATP content (survival) is reported for this compound? `CCOC(=O)C1=C(C)Nc2ccccc2N=C1NC(=O)CCCN1C(=O)c2ccccc2C1=O`
Result: -1.5

Q: For `Cc1ccc(CSCc2nnc(SCC(=O)N3CCN(c4ccccc4)CC3)n2C)cc1` , what is its reported cellular ATP content (survival)?
Result: 2

Q: GET /values?readout=cellular ATP content (survival)&item= `O=C(CSc1nc2ccccc2[nH]1)Nc1nc(-c2cccc(Br)c2)cs1`
Result: -3.8

Q: I would be grateful if you could share the reported cellular ATP content (survival) for Cc1cccc(-c2ncc(CN3CCN(CCC(C)C)C(CCO)C3)cn2)c1 (configuration not stated) .
Result: 0.8

Q: Suppose we examine the compound Cc1ccc(CNC(=O)C(=O)NCC2OCCN2C(=O)c2cccs2)cc1 (configuration not stated) ; what cellular ATP content (survival) value has been reported?
Result: -0.2

Q: GET /values?readout=cellular ATP content (survival)&item= `CC(=O)Nc1nc2ccc(NC(=O)c3ccco3)cc2s1`
Result: -5.6

Q: Can you look up the measured cellular ATP content (survival) of `O=C(COc1ccc(Cl)cc1Cl)NCCCCc1ccccc1` for me?
Result: -2.7

Q: Query: cellular ATP content (survival); subject: `c1cnc2c(SCc3ccc(-c4nnco4)cc3)cccc2c1`
Result: -0.4

Q: Please look up its cellular ATP content (survival): `COc1cc([N+](=O)[O-])ccc1NC(=O)c1cccc(NC(=O)C(C)C)c1`
Result: 2.2

Q: Please report the recorded cellular ATP content (survival) for CCC(Sc1nc(N)cc(=O)[nH]1)C(=O)Nc1cc(C)on1 (configuration not stated) .
Result: 1.6

Q: Reported cellular ATP content (survival), compound O=C(COc1ncnc2scc(-c3ccccc3)c12)NC1CCCc2ccccc21 (configuration not stated) : ____
Result: -2.4

Q: Given `CCn1c(NCc2ccc3c(c2)OCO3)nc2ccccc21` , state its recorded cellular ATP content (survival).
Result: -1

Q: Which cellular ATP content (survival) is listed for `CCOC(=O)c1cnc(-n2nc(C)cc2C)nc1Nc1ccc2c(c1)OCO2` ?
Result: -1.2

Q: For `CCOC(=O)c1c(NC(=O)C[n+]2ccc(N(C)C)cc2)sc(C)c1C` , what is its reported cellular ATP content (survival)?
Result: -2

Q: Entry under review: `O=c1[nH]c(CSc2nnc(-c3ccccc3)n2C2CCCCC2)nc2ccccc12` . Reported cellular ATP content (survival)?
Result: 0.3

Q: Entry `CCc1cccc(C)c1NC(=S)N(Cc1cccnc1)Cc1ccco1` has what cellular ATP content (survival)?
Result: -2.7

Q: Given `COc1cc(NC(=O)CN2c3cccc4cccc(c34)S2(=O)=O)cc(OC)c1OC` , state its recorded cellular ATP content (survival).
Result: -1

---

# cellular ATP content (survival) annotations
- TEST_DETAILS: rescue of cells from ER stress-induced death, primary screen, 384-well, CSM14.1, thapsigargin, ATP luminescence (AID 1222);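 further: death triggered by thapsigargin at about 15 µM added after 2 h compound pretreatment; cell ATP read after overnight thapsigargin exposure of roughly 18 to 22 hours; reference of the scale not given here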
- RECORDED_CONDITIONS: CSM14.1 thapsigargin-induced death rescue, at 20 µM, stronger effect = higher value
The campaign covered roughly 190,000 compounds. Fewer than 10 were called active. These entries were drawn from the full list. Entries with a potency or affinity are not part of this list.
Please respond with the number in % and leave the unit unwritten.

Below, each entry is followed by its recorded cellular ATP content (survival) result.
INSERT INTO measurements (compound, quantity_kind, unit_symbol, reading) VALUES
  ('COc1ccc(OC)c(NC(=O)C2CCC(CNc3c(N4CCC(C)CC4)c(=O)c3=O)CC2)c1 (stereo unspecified)', 'cellular ATP content (survival)', '%', 1.6),
  ('COc1ccc(NC(=O)c2ccccc2NC(=O)CSc2ccc(C)cc2)cc1', 'cellular ATP content (survival)', '%', 4);

Q: Would you mind telling me what cellular ATP content (survival) value was observed for CS(=O)(=O)N1CCCC(C(=O)NCc2ccc(F)cc2)C1 (stereo unspecified) ?
Result: 0.6

Q: Value lookup for cellular ATP content (survival); key = CC(C)=CCN1CCN(Cc2ccc(C)s2)CC1CCO (stereo unspecified)
Result: 0.8

---

- TEST_DETAILS: rescue of cells from ER stress-induced death, primary screen, 384-well, CSM14.1, thapsigargin, ATP luminescence (AID 1222);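 further: death triggered by thapsigargin at about 15 µM added after 2 h compound pretreatment; cell ATP read after overnight thapsigargin exposure of roughly 18 to 22 hours; reference of the scale not given here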
- RECORDED_CONDITIONS: CSM14.1 thapsigargin-induced death rescue, at 20 µM, stronger effect = higher value
Among all 190,000 compounds or so, fewer than 10 were called active. These entries were drawn from the full list. Results with a measured potency or affinity are listed apart.
# cellular ATP content (survival) per record follows
Field: numeric (%). Do not append units.

In the examples that follow, each entry is paired with its recorded cellular ATP content (survival).
INSERT INTO results (compound, reading) VALUES
  ('O=C1c2ccccc2C(=O)C1C1=Nc2ccccc2NC(c2ccccc2)C1 (stereo unspecified)', 4.7),
  ('CN1CCc2c(OCC(=O)N3N=C(c4cccs4)CC3c3ccc(F)cc3)cccc2C1=O (stereo unspecified)', 1.4),
  ('C(=N\Nc1nc(N2CCOCC2)nc(N2CCOCC2)n1)/c1cccnc1', 1.2),
  ('O=C(COC(=O)CCNS(=O)(=O)c1ccc2c(c1)OCCO2)NC1CCCc2ccccc21 (stereo unspecified)', -0.1),
  ('O=C(O)CCCn1cc(NC(=O)c2cc(F)c(F)cc2Cl)cn1', -2.1),
  ('CSc1ccc(C(C(C(=O)c2cccs2)N2CCOCC2)N2CCOCC2)cc1 (stereo unspecified)', -1.7),
  ('Cc1ccc(S(=O)(=O)N2CCN(C(C)CC(=O)O)CC2)cc1 (stereo unspecified)', -0.8),
  ('O=C(Nc1cccc(C2OCCCO2)c1)c1cccs1', -3.3),
  ('c1ccc(-c2nccc(-c3ccc(-n4cnc5ccccc54)cc3)n2)cc1', -0.9),
  ('CC(C)(C)N/N=C/c1c(O)n(-c2ccc(Cl)cn2)c(=O)c2ccccc12', -1.2);

Q: Returns the measured cellular ATP content (survival) for the input compound. Input: `COc1ccc(/C=C(/NC(=O)c2ccccc2)c2nc3ccc(Cl)cc3[nH]2)cc1OC`
Result: 1.1

Q: Would you kindly share the measured cellular ATP content (survival) for O=C1OC(Cc2ccccn2)C(=O)C1=C1SCCS1 (stereo unspecified) ?
Result: -2.9

Q: For CCOC(=O)C1CCN(C(=O)CCS(=O)(=O)c2ccc3c(c2)CC(C)N3C(=O)CC)CC1 (stereo unspecified) , what is its reported cellular ATP content (survival)?
Result: 0.4

Q: Name the recorded cellular ATP content (survival) for COc1cccc(C2CC(c3cccs3)=NN2C(=S)Nc2ccccc2)c1OC (stereo unspecified) .
Result: 2.5

Q: For `CCOc1ccccc1-n1c(SCC(=O)Nc2nccs2)nnc1-c1ccoc1C` , what is its reported cellular ATP content (survival)?
Result: 1.4

Q: Which cellular ATP content (survival) reading was recorded for the compound O=S1(=O)C=CC(Sc2nc3ccccc3[nH]2)C1 (stereo unspecified) ?
Result: 7.3

Q: Fill in the blank: the reported cellular ATP content (survival) of Cc1ccccc1NC(=O)C12CC3CCC1(C)C3(C)CO2 (stereo unspecified) is ____.
Result: 3.2

Q: Which measured cellular ATP content (survival) value corresponds to Cc1ccc(/C(O)=C2\C(=O)C(=O)N(CCc3c[nH]c4ccccc34)C2c2cccnc2)cc1 (stereo unspecified) ?
Result: 1.1

Q: Which value of cellular ATP content (survival) has been reported for CC(=O)Nc1sc2c(c1C(c1ccccn1)N1CCN(C)CC1)CCCC2 (stereo unspecified) in the records?
Result: -0.7

Q: Consider the compound `Cn1c(=NC(=O)C2CCN(S(=O)(=O)c3cccs3)CC2)sc2ccccc21` and give its measured cellular ATP content (survival).
Result: -0.7

Q: Name the reported cellular ATP content (survival) value associated with the compound `CSc1nccc(N2CCN(c3ccc(F)cc3)CC2)n1`
Result: 5.7
